Origin of values: ChEMBL document CHEMBL5291721

- assay-system: 5-hydroxytryptamine receptor 3A (Homo sapiens, UniProt P46098); also: assay procedure not described here
- Sequence (P46098 whole entry): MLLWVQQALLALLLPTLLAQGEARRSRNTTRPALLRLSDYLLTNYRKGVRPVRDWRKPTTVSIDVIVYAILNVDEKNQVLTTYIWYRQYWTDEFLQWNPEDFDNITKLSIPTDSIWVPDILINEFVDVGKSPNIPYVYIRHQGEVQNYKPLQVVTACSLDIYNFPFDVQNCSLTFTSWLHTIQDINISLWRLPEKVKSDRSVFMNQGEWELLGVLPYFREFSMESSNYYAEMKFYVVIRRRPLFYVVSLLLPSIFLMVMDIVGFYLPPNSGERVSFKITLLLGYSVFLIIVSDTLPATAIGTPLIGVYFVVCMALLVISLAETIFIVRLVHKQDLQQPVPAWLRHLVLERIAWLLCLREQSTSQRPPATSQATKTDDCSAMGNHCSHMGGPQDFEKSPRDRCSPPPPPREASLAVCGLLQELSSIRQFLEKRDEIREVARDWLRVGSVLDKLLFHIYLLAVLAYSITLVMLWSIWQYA
- Assay type: functional
Recorded AC50 for the following compounds
readout-label: AC50

[[record]]
compound = "O=C(O)Cc1cn(-c2ccccc2)nc1-c1ccc(Cl)cc1"
readout_label = "AC50"
measurement = "> 30 µM"

[[record]]
compound = "CC[C@H](C)C(=O)O[C@H]1C[C@H](O)C=C2C=C[C@H](C)[C@H](CC[C@@H](O)C[C@@H](O)CC(=O)O)[C@H]21"
readout_label = "AC50"
measurement = "> 30 µM"

[[record]]
compound = "COC(=O)[C@@H]1CC2=CC(=O)CC[C@]2(C)[C@@]23O[C@@H]2C[C@@]2(C)[C@@H](CC[C@@]24CCC(=O)O4)[C@H]13"
readout_label = "AC50"
measurement = "> 30 µM"

[[record]]
compound = "CC/C=C\\C/C=C\\C/C=C\\CCCCCCCC(=O)O"
readout_label = "AC50"
measurement = "> 30 µM"

[[record]]
compound = "NS(=O)(=O)c1cc2c(cc1Cl)NCNS2(=O)=O [HYDROCHLOROTHIAZIDE]"
readout_label = "AC50"
measurement = "> 10 µM"

[[record]]
compound = "CCCC(CCC)C(=O)O[C@H]1C[C@H]2CC[C@@H](C1)[N+]2(C)C"
readout_label = "AC50"
measurement = "28 µM"

[[record]]
compound = "COC(=O)C1=C(C)NC(C)=C(C(=O)OCC(C)C)C1c1ccccc1[N+](=O)[O-] (configuration not stated)"
readout_label = "AC50"
measurement = "> 30 µM"

[[record]]
compound = "Nc1nc(N)c2nc(-c3ccccc3)c(N)nc2n1"
readout_label = "AC50"
measurement = "> 30 µM"

[[record]]
compound = "CCCCCCCCCCCC[N+](C)(C)CCOc1ccccc1"
readout_label = "AC50"
measurement = "> 30 µM"

[[record]]
compound = "CCCOc1ccc(C(=O)OCCN(CC)CC)cc1N"
readout_label = "AC50"
measurement = "> 30 µM"

[[record]]
compound = "O=C(CCCCCCC(=O)Nc1ccccc1)NO"
readout_label = "AC50"
measurement = "> 30 µM"

[[record]]
compound = "COC(=O)N[C@H](C(=O)N[C@@H](Cc1ccccc1)[C@@H](O)CN(Cc1ccc(-c2ccccn2)cc1)NC(=O)[C@@H](NC(=O)OC)C(C)(C)C)C(C)(C)C"
readout_label = "AC50"
measurement = "> 30 µM"

[[record]]
compound = "COC(=O)C1=C(C)NC(C)=C(C(=O)OC)C1c1ccccc1[N+](=O)[O-]"
readout_label = "AC50"
measurement = "> 30 µM"

[[record]]
compound = "C[C@]12CCC(=O)C=C1CC[C@@H]1[C@@H]2CC[C@@]2(C)[C@H]1CC[C@]2(C)O"
readout_label = "AC50"
measurement = "> 30 µM"

[[record]]
compound = "CC(C(O)c1ccc(O)cc1)N1CCC(Cc2ccccc2)CC1 (configuration not stated)"
readout_label = "AC50"
measurement = "> 30 µM"

[[record]]
compound = "CN1CCC2=C(C1)C(c1ccccc1)c1ccccc12 (configuration not stated)"
readout_label = "AC50"
measurement = "12 µM"

[[record]]
compound = "CC(C)NCC1CCc2cc(CO)c([N+](=O)[O-])cc2N1 (configuration not stated)"
readout_label = "AC50"
measurement = "> 30 µM"


----------
- assay-system: Alpha-2A adrenergic receptor (Homo sapiens, UniProt P08913)
- Sequence (P08913 whole entry): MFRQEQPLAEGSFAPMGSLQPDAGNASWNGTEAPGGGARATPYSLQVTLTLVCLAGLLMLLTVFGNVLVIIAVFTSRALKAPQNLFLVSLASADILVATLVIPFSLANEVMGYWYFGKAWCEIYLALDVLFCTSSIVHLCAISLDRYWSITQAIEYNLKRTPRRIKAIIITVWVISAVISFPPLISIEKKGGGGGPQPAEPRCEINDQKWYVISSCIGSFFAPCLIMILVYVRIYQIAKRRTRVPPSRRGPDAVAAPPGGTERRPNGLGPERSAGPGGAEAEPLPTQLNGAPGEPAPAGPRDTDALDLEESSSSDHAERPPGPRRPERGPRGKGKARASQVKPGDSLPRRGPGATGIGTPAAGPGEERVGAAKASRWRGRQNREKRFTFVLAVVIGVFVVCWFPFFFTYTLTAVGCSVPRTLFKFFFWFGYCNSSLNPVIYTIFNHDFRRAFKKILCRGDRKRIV
Measured AC50 accompanies every entry in the list below.
readout-label: AC50

[[record]]
compound = "CCN1CCC[C@H]1CNC(=O)c1cc(S(N)(=O)=O)ccc1OC [LEVOSULPIRIDE]"
readout_label = "AC50"
measurement = "> 10 µM"

[[record]]
compound = "CN(C)CCCN1c2ccccc2Sc2ccccc21"
readout_label = "AC50"
measurement = "5 µM"

[[record]]
compound = "C1COC(NC(C2CC2)C2CC2)=N1"
readout_label = "AC50"
measurement = "3.49 µM"

[[record]]
compound = "NS(=O)(=O)c1cc2c(cc1Cl)NCNS2(=O)=O [HYDROCHLOROTHIAZIDE]"
readout_label = "AC50"
measurement = "> 10 µM"

[[record]]
compound = "CN1CCc2cccc3c2[C@H]1Cc1ccc(O)c(O)c1-3"
readout_label = "AC50"
measurement = "2.37 µM"

[[record]]
compound = "Cc1ccc(-c2nc3ccc(C)cn3c2CC(=O)N(C)C)cc1"
readout_label = "AC50"
measurement = "> 10 µM"

[[record]]
compound = "Cc1cc(-c2ccccc2)nnc1NCCN1CCOCC1"
readout_label = "AC50"
measurement = "> 10 µM"

[[record]]
compound = "CN(CCOc1ccc(NS(C)(=O)=O)cc1)CCc1ccc(NS(C)(=O)=O)cc1 [DOFETILIDE]"
readout_label = "AC50"
measurement = "> 10 µM"

[[record]]
compound = "CC(C)c1c(C(=O)Nc2ccccc2)c(-c2ccccc2)c(-c2ccc(F)cc2)n1CC[C@@H](O)C[C@@H](O)CC(=O)O"
readout_label = "AC50"
measurement = "> 10 µM"


----------
- assay-system: Alpha-2A adrenergic receptor (Homo sapiens, UniProt P08913)
- Type: functional, cell-based
readout-label: AC50

[[record]]
compound = "O=C(Cn1ccnc1[N+](=O)[O-])NCc1ccccc1 [BENZNIDAZOLE]"
assay_system = "Alpha-2A adrenergic receptor (Homo sapiens, UniProt P08913)"
measurement = "> 30 µM"

[[record]]
compound = "COC(=O)N[C@H](C(=O)N[C@@H](Cc1ccccc1)[C@@H](O)CN(Cc1ccc(-c2ccccn2)cc1)NC(=O)[C@@H](NC(=O)OC)C(C)(C)C)C(C)(C)C [ATAZANAVIR]"
assay_system = "Alpha-2A adrenergic receptor (Homo sapiens, UniProt P08913)"
measurement = "> 10 µM"

[[record]]
compound = "CO/N=C(\\C(=O)N[C@@H]1C(=O)N2C(C(=O)OCOC(=O)C(C)(C)C)=C(C)CS[C@H]12)c1csc(N)n1"
assay_system = "Alpha-2A adrenergic receptor (Homo sapiens, UniProt P08913)"
measurement = "> 30 µM"

[[record]]
compound = "CC(C)Cc1ccc(CC(=O)O)cc1 [IBUFENAC]"
assay_system = "Alpha-2A adrenergic receptor (Homo sapiens, UniProt P08913)"
measurement = "> 30 µM"

[[record]]
compound = "CN1C(=O)CC(c2ccccc2)C1=O (stereo not given) [PHENSUXIMIDE]"
assay_system = "Alpha-2A adrenergic receptor (Homo sapiens, UniProt P08913)"
measurement = "> 10 µM"


----------
- assay-system: Progesterone receptor (Homo sapiens); also: assay procedure not described here
- Sequence (P06401 whole entry): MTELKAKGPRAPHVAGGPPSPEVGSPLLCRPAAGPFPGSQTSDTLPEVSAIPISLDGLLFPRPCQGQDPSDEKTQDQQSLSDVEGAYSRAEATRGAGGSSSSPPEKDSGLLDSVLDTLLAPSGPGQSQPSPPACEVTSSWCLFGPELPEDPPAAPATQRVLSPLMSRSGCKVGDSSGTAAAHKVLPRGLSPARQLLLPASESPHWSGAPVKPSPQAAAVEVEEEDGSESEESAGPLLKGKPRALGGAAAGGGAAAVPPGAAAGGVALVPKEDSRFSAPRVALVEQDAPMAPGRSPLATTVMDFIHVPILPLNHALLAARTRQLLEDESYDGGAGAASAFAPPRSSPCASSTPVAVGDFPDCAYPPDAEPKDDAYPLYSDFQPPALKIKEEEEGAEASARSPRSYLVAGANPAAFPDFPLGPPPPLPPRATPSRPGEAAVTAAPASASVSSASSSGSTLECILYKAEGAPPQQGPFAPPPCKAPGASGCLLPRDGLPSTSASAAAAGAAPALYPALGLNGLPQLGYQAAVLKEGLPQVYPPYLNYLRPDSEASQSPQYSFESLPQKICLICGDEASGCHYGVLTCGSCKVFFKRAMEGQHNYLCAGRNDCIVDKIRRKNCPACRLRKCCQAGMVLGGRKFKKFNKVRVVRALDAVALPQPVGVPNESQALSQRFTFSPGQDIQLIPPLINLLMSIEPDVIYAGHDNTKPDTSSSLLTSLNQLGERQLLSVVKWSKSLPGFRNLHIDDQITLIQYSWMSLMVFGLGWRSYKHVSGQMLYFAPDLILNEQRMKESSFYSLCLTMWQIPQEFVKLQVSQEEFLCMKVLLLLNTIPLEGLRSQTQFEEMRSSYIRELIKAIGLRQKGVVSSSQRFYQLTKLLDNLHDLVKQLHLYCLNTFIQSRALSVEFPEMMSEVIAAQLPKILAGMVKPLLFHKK
- Type: functional
readout-label: AC50

[[record]]
compound = "COc1ccc(C(=O)NCc2ccc(OCCN(C)C)cc2)cc1OC [ITOPRIDE]"
measurement = "> 30 µM"

[[record]]
compound = "CC(=O)O[C@@]12CO[C@@H]1C[C@H](O)[C@@]1(C)C(=O)[C@H](O)C3=C(C)[C@@H](OC(=O)[C@H](O)[C@@H](NC(=O)OC(C)(C)C)c4ccccc4)C[C@@](O)([C@@H](OC(=O)c4ccccc4)[C@H]21)C3(C)C [DOCETAXEL ANHYDROUS]"
measurement = "> 30 µM"

[[record]]
compound = "O=C(Cn1ccnc1[N+](=O)[O-])NCc1ccccc1"
measurement = "> 30 µM"

[[record]]
compound = "O=C(NC[C@H]1CN(c2ccc(N3CCOCC3=O)cc2)C(=O)O1)c1ccc(Cl)s1"
measurement = "> 30 µM"

[[record]]
compound = "Cc1ccc(C(=O)c2cc(O)c(O)c([N+](=O)[O-])c2)cc1"
measurement = "1.09 µM"

[[record]]
compound = "Cc1c(Cl)cccc1Nc1ccccc1C(=O)O"
measurement = "26 µM"

[[record]]
compound = "Cc1nc2ccc(CN(C)c3ccc(C(=O)N[C@@H](CCC(=O)O)C(=O)O)s3)cc2c(=O)[nH]1"
measurement = "> 30 µM"

